Please find below pIC50 data on Chymotrypsinogen B (Homo sapiens) compiled from the literature.
pIC50: −log10 of the molar value.
measuredProperty: pIC50

structureSmiles | pIC50
CC[C@@H](NC(=O)N1C(=O)[C@@H](C)[C@@H]1SCc1ccccn1)c1ccccc1 | 5.77
Cc1cccc2nc(N[C@H](C)c3ccc(Br)cc3)oc(=O)c12 | 6.85
Cc1c(N(C)C)ccc2nc(N[C@H](C)c3ccccc3)oc(=O)c12 | 7.19

(I) CCOC(=O)c1nn(C(=O)c2cccc(OC)c2)c2ccc([N+](=O)[O-])cc12
(II) Cc1cccc(C(=O)n2nc(C#N)c3ccccc32)c1
(Q) Select one. Lower pIC50: I or II Let me know the label of the one you choose.
(A) II
(II: 7.18, I: 7.68)
